# assay.comment: Cytotoxicity, CellTiter-Glo cell viability
# Assay type: cell-based
# run.conditions: human, HEK 293 cells (printed as HEK 293 neuroblastoma cell lines), 72 h treatment, read-out: EC50 cytotoxicity (cell viability, ATP)
measure.name: EC50 at 72 h

molecule: O=S(=O)(O)c1cc2c(O)c(c1)Cc1cc(S(=O)(=O)O)cc(c1O)Cc1cc(S(=O)(=O)O)cc(c1O)Cc1cc(S(=O)(=O)O)cc(c1O)C2 [SCA-744, 4-sulfocalix[4]arene]
EC50 at 72 h: 2000 µM

Now for the molecule whose EC50 at 72 h we want.
Ask: Could you please provide reported EC50 at 72 h for "Cc1cc2c(O)c(c1)Cc1cc(S(=O)(=O)O)cc(c1O)Cc1cc(S(=O)(=O)O)cc(c1O)Cc1cc(S(=O)(=O)O)cc(c1O)C2" ? Thanks!
Result: 1000 µM
